Consider the following molecules and their measured residual activity readings.
molecular target: STK17A (human); assay: radiometric filter-binding kinase assay, Kinase HotSpot; details: compound 0.5 µM; ATP 10 µM
measuredQuantity: residual activity (%)

> print(dat)
                       structuresmilesstring   measuredquantity  scaleunit  valuereported
 1  Cn1c2ccccc2c2c3c(c4c5ccccc5n(CCC#N)c4c21)CNC3=O  residual activity          %           85.3
 2   N#C/C(=C\c1ccc(O)c(O)c1)C(=O)NCc1ccccc1  residual activity          %           98.8
 3     COc1ccc2c(c1)/C(=C/c1cnc[nH]1)C(O)=N2  residual activity          %           42.3
 4  NC(=O)c1cccc(-c2cc(Nc3ccc(OC(F)(F)F)cc3)ncn2)c1  residual activity          %           98.7
 5  CO[C@@H]1[C@H](N(C)C(=O)c2ccccc2)C[C@H]2O[C@]1(C)n1c3ccccc3c3c4c(c5c6ccccc6n2c5c31)C(=O)NC4  residual activity          %           62.9
 6        CC(C)(C)c1cc(C=C(C#N)C#N)cc(Br)c1O  residual activity          %           92.3
 7  COc1ccc2c(c1)c(C1=C(c3c[nH]c4ccccc34)C(=O)NC1=O)cn2CCCN(C)C  residual activity          %             84
 8  CS(=O)(=O)CCNCc1ccc(-c2ccc3ncnc(Nc4ccc(OCc5cccc(F)c5)c(Cl)c4)c3c2)o1  residual activity          %           89.7
 9  O=C(c1cc2cc(O)ccc2[nH]1)c1cc2cc(O)ccc2[nH]1  residual activity          %           51.7
10    O=C1NC(=O)c2c1c1c3ccccc3[nH]c1n1cncc21  residual activity          %           36.6
11       Fc1ccc(-c2nc3n(c2-c2ccncc2)CCS3)cc1  residual activity          %           99.4
12    COc1ccc(Cl)cc1NC(=O)Nc1cc(C)nc2ccccc12  residual activity          %           98.1
13       CCCCc1c(-c2ccc(OC)cc2)[nH]c2nccnc12  residual activity          %           95.5
14  COc1cc2ncnc(Nc3ccc(Oc4ccccc4)cc3)c2cc1OC  residual activity          %           96.3
15  O=C1C(Cl)=C(N2C(=O)CCC2=O)C(=O)c2ccccc21  residual activity          %            101
16               c1ccc2c(-c3ccncc3)c[nH]c2c1  residual activity          %             93
17  C[C@@H]1CCN(C(=O)CC#N)C[C@@H]1N(C)c1ncnc2[nH]ccc12  residual activity          %            106
18  CN(C)CCCn1cc(C2=C(c3c[nH]c4ccccc34)C(=O)NC2=O)c2ccccc21  residual activity          %           86.9
19  N#Cc1c[nH]c2c[nH]/c(=N\Cc3cccnc3)cc2/c1=N\c1ccc(F)c(Cl)c1  residual activity          %           79.6
20  COc1cc2ncnc(Nc3ccc(OCc4ccccc4)cc3)c2cc1OC  residual activity          %           99.6
21      CN(C)c1ccc(/C=C2\C(=O)Nc3ccccc32)cc1  residual activity          %           93.8
22            Cc1nc(-c2ccccc2)c(-c2ccncc2)o1  residual activity          %           99.5
23  COc1cc(Nc2c(C#N)cnc3cc(OCCCN4CCN(C)CC4)c(OC)cc23)c(Cl)cc1Cl  residual activity          %            107
24               O=C1c2ccccc2-c2nc3nnnn3nc21  residual activity          %           83.8
